Assay: Growth inhibition of human OVCAR8 cells at 10 uM after 48 hrs
Type: functional
Settings: OVCAR-8, 48 h, read-out: GI
propertyName: inhibition of growth at 10 µM (%)

testsmiles=COc1cc2nc(Sc3sc(N)nc3C)n(-c3ccc(Oc4ccccc4)cc3)c(=O)c2cc1OC propertyname="inhibition of growth at 10 µM" unitslabel=% number=15
testsmiles=COc1ccc(-n2c(Sc3sc(N)nc3C)nc3ccc(C)cc3c2=O)cc1 propertyname="inhibition of growth at 10 µM" unitslabel=% number=13.4
testsmiles=Cc1nc(N)sc1Sc1nc2ccc(Cl)cc2c(=O)n1-c1ccc(Oc2ccccc2)cc1 propertyname="inhibition of growth at 10 µM" unitslabel=% number=24.9
testsmiles=Cc1ccc2nc(Sc3sc(N)nc3C)n(Cc3ccccc3)c(=O)c2c1 propertyname="inhibition of growth at 10 µM" unitslabel=% number=16
